# target.of.assay: B2 bradykinin receptor (Homo sapiens)
readout.type: Ki (nM)
Dear colleague, please return just the value in nM, with no unit written.

Give Ki for this entry on B2 bradykinin receptor (Homo sapiens): CC(=O)Nc1ccc(/C=C/C(=O)NC[C@@H]2CCCN2c2ccc(C)c(COc3cccc4ccc(C)nc34)c2C)cn1 33

###

# target.of.assay: UniProt P30411
# Sequence (whole entry): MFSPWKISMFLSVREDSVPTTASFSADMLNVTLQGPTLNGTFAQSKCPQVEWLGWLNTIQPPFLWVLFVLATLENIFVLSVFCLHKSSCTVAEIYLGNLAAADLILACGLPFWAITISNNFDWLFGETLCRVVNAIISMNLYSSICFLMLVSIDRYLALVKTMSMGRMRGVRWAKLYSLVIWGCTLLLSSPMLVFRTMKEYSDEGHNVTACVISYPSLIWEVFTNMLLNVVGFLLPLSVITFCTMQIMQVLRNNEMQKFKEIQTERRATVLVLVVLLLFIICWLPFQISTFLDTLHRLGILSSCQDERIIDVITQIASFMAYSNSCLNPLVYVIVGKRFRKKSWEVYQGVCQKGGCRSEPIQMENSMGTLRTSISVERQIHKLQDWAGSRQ
# test.description: In vitro binding affinity against Bradykinin receptor B2 at 1 uM concentration
# inhibition annotations
Dear colleague, please return just the value in %, with no unit written.

These solved cases illustrate the format of a correct answer.
| structure | target.of.assay | unit.abbreviation | inhibition |
| --- | --- | --- | --- |
| CC(=O)Nc1ccc(/C=C/C(=O)NC[C@@H]2CCCN2c2ccc(C)c(COc3cccc4ccc(C)nc34)c2C)cn1 | UniProt P30411 | % | 84 |
| Cc1ccc2cccc(OCc3c(C)ccc(N4CCC[C@H]4CO)c3C)c2n1 | UniProt P30411 | % | 19 |
| Cc1ccc2cccc(OCc3c(C)ccc(N4CCC[C@H]4C(=O)O)c3C)c2n1 | UniProt P30411 | % | 19 |

Give inhibition for this entry on UniProt P30411: Cc1ccc2cccc(OCc3c(C)ccc(N4CCC[C@@H]4CO)c3C)c2n1 12
